Target: D(3) dopamine receptor (Homo sapiens)
Assay: qHTS of D3 Dopamine Receptor Antagonist: qHTS; note: % is set by controls: 0 for no effect and ±100 for the full control effect
Conditions: D3R cells, DiscoveRx beta-arrestin luminescence, antagonist mode
Method: D3 DARs represent a very important target for the treatment of several neuropsychiatric disorders. Indeed, one of the most promising therapeutic applications for the D3 DAR is in the area of addiction and related disorders. […] Freshly passaged cells are plated in 1536 well white, solid bottom plates at a density of 1500 cells/well in 3microl of complete media. […] Following incubation, luminescence is measured on a ViewLux CCD-based luminometer reader using a 20 sec exposure time.
Screen size: about 360,000 compounds; about 9,100 (2.5%) were called active. Not shown: some 4% with an inconclusive outcome. Cut-off read from the data, not from the text of the source: active = max response below about -50%; inconclusive = no clear call, values can overlap the other calls; inactive = above that. The entries come from a sample that favours actives as a whole.
Assign a class; possible classes are active, inactive

Previously resolved entries follow.
molecule	label class
CN(C)CCNc1ccc(-c2n[nH]c(=O)c3ccccc23)cc1[N+](=O)[O-]	inactive
COc1ccc(C(O)C(O)(C(=O)OC(C)C)c2ccc(C)cc2)cc1 (stereo not given)	inactive

Next up:
Ask | Outcome? C[C@@H](NC(=O)OC(C)(C)C)c1nnc(S(=O)(=O)Cc2ccccc2)o1
Reply | active

====

molecular target: D(3) dopamine receptor (Homo sapiens) (UniProt P35462); experiment: qHTS of D3 Dopamine Receptor Antagonist: qHTS; conditions: D3R cells, DiscoveRx beta-arrestin luminescence, antagonist mode; hits give low values; note: % is set by controls: 0 for no effect and ±100 for the full control effect
Sequence (P35462 whole entry, looked up): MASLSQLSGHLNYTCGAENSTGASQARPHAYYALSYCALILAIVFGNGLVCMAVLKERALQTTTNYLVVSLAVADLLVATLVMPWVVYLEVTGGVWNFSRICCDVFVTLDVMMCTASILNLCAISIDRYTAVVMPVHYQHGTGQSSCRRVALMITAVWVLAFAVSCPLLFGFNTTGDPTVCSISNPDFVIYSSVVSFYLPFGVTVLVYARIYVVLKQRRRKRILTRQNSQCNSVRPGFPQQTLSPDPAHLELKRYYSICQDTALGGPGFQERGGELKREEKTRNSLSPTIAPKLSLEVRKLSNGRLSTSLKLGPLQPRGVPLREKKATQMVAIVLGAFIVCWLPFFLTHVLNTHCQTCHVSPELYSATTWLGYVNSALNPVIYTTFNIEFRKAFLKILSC
The campaign covered roughly 360,000 compounds. About 9,100 (2.5%) were called active. Another 4% or so got no clear call; they are omitted. The full list was thinned out, with actives kept by preference.
We label by threshold. Values of max response, negative = inhibition strictly beneath -10% are 1. Values of -10% and up are -1.

Ask | Answer whether the molecule CCN(CC(=O)Nc1ccc(NC(C)=O)cc1)C(=O)C1CC(=O)N(c2ccc3c(c2)OCCO3)C1 (stereo not given) has max response, negative = inhibition strictly less than -10%
Reply | -1

Ask | # check: max response, negative = inhibition < -10% for COc1cccc(OCC(=O)NNC(=O)c2cnccn2)c1
Reply | -1

Ask | State whether -10% exceeds max response, negative = inhibition recorded for CC(=O)c1cc2c(cc1NC(=O)Cn1nc(-c3ccc(F)cc3)ccc1=O)OCO2 .
Reply | 1

Ask | In plain terms, does CN1/C(=C\C=C2\N=C(c3ccc(F)cc3)OC2=O)C(C)(C)c2ccccc21 come in under -10% for max response, negative = inhibition?
Reply | 1

Ask | Confirm or reject: max response, negative = inhibition of COC(=O)c1cc(NC(=O)Cc2ccccc2[N+](=O)[O-])ccc1Cl lies strictly below -10%
Reply | -1

Ask | Quick check: max response, negative = inhibition of CC(=O)N/C(=C/c1ccc(OC(F)F)cc1)C(=O)O under -10%?
Reply | 1

Ask | Regarding O=C(c1cc(S(=O)(=O)N2CCOCC2)ccc1Cl)N1CCOCC1 , kindly confirm whether its max response, negative = inhibition is beneath -10%.
Reply | 1

Ask | max response, negative = inhibition strictly < -10% for this molecule? CC(=O)N/C(=C\c1ccc(F)cc1)C(=O)NC(Cc1ccccc1)C(=O)O (stereo not given)
Reply | -1

Ask | API: query returns whether the molecule falls strictly under -10% in max response, negative = inhibition. Query: CCOC(=O)C1CCCN(C(=O)c2cccc3ccccc23)CC1 (stereo not given)
Reply | -1

Ask | Given Cc1ccc(CNC(=O)Nc2nnc([C@H]3C[C@H](O)[C@@H](CO)O3)s2)cc1 , is recorded max response, negative = inhibition strictly lower than -10%?
Reply | -1

Ask | # TODO verify max response, negative = inhibition < -10% strictly for this molecule: O=[N+]([O-])c1cc(Cl)cc(/C=N/NC(=S)Nc2cc(S(=O)(=O)N3CCOCC3)ccc2Cl)c1O
Reply | 1

Ask | Here's an entry: O=C(Cn1cnc2c(nnn2-c2ccccc2)c1=O)N1CCC(Cc2ccccc2)CC1 . Is its max response, negative = inhibition below -10%?
Reply | 1

Ask | hey, is max response, negative = inhibition for COC(=O)c1ccc(CN2CCC(CO)(Cc3ccc(OC)cc3)CC2)cc1 lower than -10% or not?
Reply | 1

Ask | Threshold test, max response, negative = inhibition < -10%: Cc1c(NS(=O)(=O)c2ccc(NC3CCCC3)c([N+](=O)[O-])c2)c(=O)n(-c2ccccc2)n1C
Reply | 1

Ask | Bench note: check whether COc1ccc(C(=O)NNC(=O)c2cnccn2)cc1[N+](=O)[O-] shows max response, negative = inhibition below -10%
Reply | 1

Ask | For this molecule, is max response, negative = inhibition lower than -10%? O=C(CN1CCCCCC1)Nc1ccc(Br)cc1Br
Reply | 1

Ask | Does the reported max response, negative = inhibition of the following molecule sit strictly below -10%? Cn1cnc(S(=O)(=O)N2C[C@@H](O)COC[C@@H]3O[C@H](CC(=O)NC4CCC4)CC[C@H]32)c1
Reply | -1

Ask | Quick check: does CN(Cc1ccccc1F)C(=O)C(Cc1ccccc1)NC(=O)c1ccccc1 (stereo not given) have max response, negative = inhibition under -10%?
Reply | -1

Ask | Is the reported max response, negative = inhibition for Cc1ccccc1NC(=O)Cc1nc(COC(=O)C(C)(C)Oc2ccc(Cl)cc2)cs1 strictly below -10%?
Reply | -1

Ask | Item O=S1(=O)CC(N2CCN(Cc3ccccc3F)CC2)CN1Cc1cn(Cc2cccc(C(F)(F)F)c2)nn1 (stereo not given) : max response, negative = inhibition beneath -10%, strictly?
Reply | -1

Ask | Strictly below -10%: is that where max response, negative = inhibition of CCCCc1ccc(S(=O)(=O)NC(=O)C2(C)CCN2C(=O)c2c(C)noc2C)cc1 (stereo not given) sits?
Reply | -1

Ask | API: query returns whether the molecule falls strictly under -10% in max response, negative = inhibition. Query: CN1CCN(CCC(=O)N/N=C/C=C2\N(C)c3ccccc3C2(C)C)CC1
Reply | 1

Ask | Hello, I'm reviewing records and need to know if max response, negative = inhibition of NC(=O)c1ccc(NC(=O)COC(=O)c2ccc([N+](=O)[O-])cc2)cc1 is below -10%. Could you check?
Reply | 1

Ask | Is the reported max response, negative = inhibition for Cc1cc([N+](=O)[O-])c(NC2CCCCC2)c([N+](=O)[O-])c1 strictly below -10%?
Reply | -1

Ask | Record CCOC(=O)[C@]12CCCC=C1N(CCC1=CCCCC1)C(=O)[C@H](CC(=O)N1CCN(C(=O)c3ccco3)CC1)C2 : is its max response, negative = inhibition strictly below -10%?
Reply | -1

Ask | Say whether its max response, negative = inhibition is strictly beneath -10%. Entry: CCOc1ccc(C(=O)Nc2nccs2)cc1[N+](=O)[O-]
Reply | -1
